Reference source for all entries: the supplement of paper PMC12042874

TEST METHOD NOTES: amyloid nucleation score (Sup35N fusion, yeast selection) (log enrichment); library NNK2; higher = more nucleation; inactive = no reads after selection;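 also: zero at mode of non-aggregating sequences after 7 days selection at 30°C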
Threshold rule: amyloid nucleation score greater than or equal to 0.2 is condition met; below that, condition not met.

Record excerpt, results attached:
[[record]]
substance = "LWTHGSYSVLRLIEPVGAQE"
qualitative_label = "condition met"

[[record]]
substance = "YCMASLSSLNLVRHWDDESS"
qualitative_label = "condition not met"

[[record]]
substance = "RDVFDMSSPTIAQCNVVRGM"
qualitative_label = "condition not met"

[[record]]
substance = "NLLLVFSILNSGRMTLNDNK"
qualitative_label = "condition met"

[[record]]
substance = "QFLEFHIP"
qualitative_label = "condition not met"

[[record]]
substance = "FCPMVLAFTSRGIATKNCGV"
qualitative_label = "condition met"

[[record]]
substance = "GMPNFSVFVWAF"
qualitative_label = "condition met"

[[record]]
substance = "LCIGYFLV"
qualitative_label = "condition not met"


State whether the measured amyloid nucleation score reaches 0.2, counting equality as reaching it, for FWLSTWSFNVVYPDGEAQKS
condition not met

State whether the measured amyloid nucleation score reaches 0.2, counting equality as reaching it, for VDLSLTHYCARSNYLGGPSF
condition met

State whether the measured amyloid nucleation score reaches 0.2, counting equality as reaching it, for LKISVCQLRLFKLGARTRGW
condition not met

State whether the measured amyloid nucleation score reaches 0.2, counting equality as reaching it, for CFDEFTLCKVLWNMFSTFLG
condition not met

State whether the measured amyloid nucleation score reaches 0.2, counting equality as reaching it, for MTYCVN
condition met

State whether the measured amyloid nucleation score reaches 0.2, counting equality as reaching it, for CMVIRSW
condition not met

State whether the measured amyloid nucleation score reaches 0.2, counting equality as reaching it, for FLKTKSFMVKMTGVNNQVFL
condition met

----------
TEST METHOD NOTES: amyloid nucleation score (Sup35N fusion, yeast selection) (log enrichment); library NNK3; higher = more nucleation; inactive = no reads after selection
ASSAY METRIC: amyloid nucleation score

Some solved cases for reference:
[[record]]
substance = "ATIYICGLNPNRVAACIVLE"
assay_metric = "amyloid nucleation score"
recorded_value = "inactive"

[[record]]
substance = "SYEHFRWLYHVFKVARFFFL"
assay_metric = "amyloid nucleation score"
recorded_value = "inactive"

[[record]]
substance = "GRLLRTMVD"
assay_metric = "amyloid nucleation score"
recorded_value = "inactive"

[[record]]
substance = "YLGESWTVPALYVRSDMMFV"
assay_metric = "amyloid nucleation score"
recorded_value = "inactive"

[[record]]
substance = "KFHWWDTCTDVKSRLKVDVE"
assay_metric = "amyloid nucleation score"
recorded_value = "inactive"

[[record]]
substance = "QVVTSYGGSAVEDITAML"
assay_metric = "amyloid nucleation score"
recorded_value = "inactive"


I have 5 substances here; please give me amyloid nucleation score for each one.
1. HIKKRYKLLAMLLMSDLR
2. TCLLFVTHFNWYNTLVEGTI
3. QSLRRQYLNYIRSIFESMEN
4. SFTIIMALCSV
5. CIGIYFLIRGTYILIVFSL

1: inactive; 2: 0.989; 3: inactive; 4: inactive; 5: -0.607

I have 5 substances here; please give me amyloid nucleation score for each one.
1. HGDVCMNMGYNRT
2. IIRISEFDSCGQTAW
3. ETISFYLCLLYDVKLVNALM
4. DFILVSLLREDTNVGTACRV
5. WILSYLDNCARSRQ

1: inactive; 2: inactive; 3: -0.54; 4: inactive; 5: inactive

Can you look up the measured amyloid nucleation score of NVADALS for me?
inactive
